system: MDA-MB-468 breast; test: NCI-60 one-dose screen, 48 h (100 = growth as untreated, 0 = no growth, -100 = all killed); settings: 10 µM unless noted
About 83,000 compounds went through this panel and 20% of them were active in at least one assay; those are over-represented in the sample as a whole.
Label scheme for growth: lower than -20% is not satisfied, -20% and above is satisfied.

compound | study-system | label-class
COc1ccc(/C=C/C(=O)c2ccc(S(=O)(=O)NCCNc3nc(N(C)C)nc(N4CCOCC4)n3)cc2)cc1 | MDA-MB-468 breast | satisfied
Clc1ccc(-c2nc3c4c(-c5ccccc5)c(-c5ccccc5)n(Cc5ccccc5)c4ncn3n2)cc1 | MDA-MB-468 breast | not satisfied
O=C(OCCOCCO)N(c1cccc(Br)c1)c1nc(SCCN2CCOCC2)nc2c1cnn2CC(Cl)c1ccc(Br)cc1 (configuration not stated) | MDA-MB-468 breast | satisfied
Cn1cc(-c2cc3nc(-c4c[nH]c5ccccc45)cc(N)n3n2)c2ccccc21 | MDA-MB-468 breast | not satisfied
O=Cc1cncc(-c2ccc3ncnc(N4CCc5cc(F)c(Cl)cc54)c3c2)c1 | MDA-MB-468 breast | not satisfied
COc1ccc(-c2nc3ccc(-c4nnc(SCc5ccccc5)o4)cc3[nH]2)cc1 | MDA-MB-468 breast | not satisfied
O=C(N/N=C/c1ccc(-c2cccc([N+](=O)[O-])c2)s1)c1[nH]c2ccc(Br)cc2c1-c1ccccc1 | MDA-MB-468 breast | satisfied
Cc1ccc(C(=O)Nc2cc(-n3ccnc3C)cc(C(F)(F)F)c2)cc1C#Cc1cnc2cccnn12 | MDA-MB-468 breast | not satisfied
N#CCc1nnc(NC(=O)c2ccc(-n3c(=O)[nH]c4ccccc4c3=O)cc2)s1 | MDA-MB-468 breast | satisfied
O=C1NC(=NC23CC4CC(CC(C4)C2)C3)N/C1=C\c1ccc2ncccc2c1 | MDA-MB-468 breast | satisfied
Cc1[nH]nc2ccc3nc(-c4cnn(CCO)c4)c4c(c3c12)CCCC4 | MDA-MB-468 breast | satisfied
O=C1/C(=C/c2cccc3c2OCO3)Cc2c(F)cc(Br)cc21 | MDA-MB-468 breast | satisfied
CCc1ccc(SC2c3cc(OC)ccc3Oc3nc(N)c(C#N)c(N)c32)cc1 (configuration not stated) | MDA-MB-468 breast | not satisfied
c1ccc(CSc2nnc(-c3ccc4nc(-c5ccccc5)[nH]c4c3)o2)cc1 | MDA-MB-468 breast | satisfied
COc1ccc(-c2nc3ccccc3n2CC(=O)N=Nc2c(O)[nH]c3ccc(OC)cc23)cc1 | MDA-MB-468 breast | satisfied
Cc1ccc(N=Nc2c(N)nn3c(-c4cc5cc(Br)ccc5oc4=O)ccnc23)cc1 | MDA-MB-468 breast | satisfied
Cc1nn(-c2ccccc2)c2nc(C)n(CC(=O)N/N=C/c3ccccc3O)c(=O)c12 | MDA-MB-468 breast | not satisfied
COC(=O)c1cc(C(C)=O)n2c3ccccc3c3ccccc3c12 | MDA-MB-468 breast | satisfied
Oc1ccc(Cl)c(Nc2nc(SCCN3CCOCC3)nc3c2cnn3CC(Cl)c2ccc(Br)cc2)c1 (configuration not stated) | MDA-MB-468 breast | not satisfied
Cc1nc2sccn2c1-c1nnc(SCC(C)C)o1 | MDA-MB-468 breast | satisfied
CCOc1ccc(-c2cc(-c3cc(C(C)C)c(O)cc3C)nn2-c2ccc(S(N)(=O)=O)cc2)cc1 | MDA-MB-468 breast | satisfied
O=C(Cn1c(/C=C/c2ccc([N+](=O)[O-])cc2)nc2ccccc2c1=O)Nc1ccccc1 | MDA-MB-468 breast | satisfied
COC(=O)c1c(C(=O)OC)c2c3ccccc3c3ccccc3n2c1C(=O)C(F)(F)F | MDA-MB-468 breast | satisfied
COc1ccc(N=Nc2c(N)nn3c(N)c(C#N)c(-c4ccc(F)cc4)nc23)cc1 | MDA-MB-468 breast | satisfied
FC(F)(F)c1cc2c(Cl)ncnc2n1CCN1CCOCC1 | MDA-MB-468 breast | satisfied
CCN1C(=O)N(CC)C2NNC(Sc3c(C(=O)O)c4ccccc4n(CCC(C)C)c3=O)=NC21 (configuration not stated) | MDA-MB-468 breast | satisfied
CN1C(=O)C2(C(C#N)=C(c3ccc(Cl)cc3)Nc3c2c(-c2ccccc2)nn3-c2ccccc2)c2ccccc21 (configuration not stated) | MDA-MB-468 breast | satisfied
Cc1ccc(C2CC(c3ccc(NC(=S)Nc4ccccc4)cc3)=NN2c2ccc(S(N)(=O)=O)cc2)cc1 (configuration not stated) | MDA-MB-468 breast | satisfied
Cc1nn(-c2ccccc2)c2nc(C)n(C(=O)N/N=C/c3ccccc3)c(=O)c12 | MDA-MB-468 breast | satisfied
Cc1ccc2nc(COc3ccc(C(=O)NNC(=O)Nc4ccc(Cl)c(C(F)(F)F)c4)cc3)[nH]c2c1 | MDA-MB-468 breast | not satisfied
O=C(NN1C(=O)/C(=C/C=C/c2ccc([N+](=O)[O-])o2)SC1=S)c1ccc([N+](=O)[O-])cc1 | MDA-MB-468 breast | not satisfied
O=C(Nc1ccc(-c2ccc3c(c2)NC(=O)/C3=C\c2ccc[nH]2)cc1)Nc1cccc(Cl)c1 | MDA-MB-468 breast | not satisfied

Every entry's value here was drawn from PubChem BioAssay (NCI).
